target: hGPR120 (Homo sapiens, UniProt Q5NUL3); construct: expressed in transfected cells; host or cells: CHO-K1; experiment: Measurement of activity of GPR120 agonist (cell-based calcium fluorescence assay); conditions: CHO-K1 cells expressing Ga16 and hGPR120, Calcium 5 dye fluorescence; activity class; read-out: EC50
Sequence (Q5NUL3 whole entry): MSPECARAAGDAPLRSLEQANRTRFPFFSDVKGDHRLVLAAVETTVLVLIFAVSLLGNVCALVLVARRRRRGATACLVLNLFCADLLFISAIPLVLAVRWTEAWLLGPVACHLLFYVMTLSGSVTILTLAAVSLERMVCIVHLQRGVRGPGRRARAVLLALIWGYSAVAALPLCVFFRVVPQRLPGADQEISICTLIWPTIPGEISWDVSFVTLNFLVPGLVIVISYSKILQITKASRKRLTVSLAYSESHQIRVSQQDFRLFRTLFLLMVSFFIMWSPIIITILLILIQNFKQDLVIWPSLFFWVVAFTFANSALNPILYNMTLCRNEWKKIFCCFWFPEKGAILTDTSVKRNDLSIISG
pEC50: −log10 of the molar value.
Please provide measured pEC50 for the entries that follow.

// known answers, use as guide
INSERT INTO assay_data (compound, test_system, readout_value) VALUES
  ('C[C@H](CCC(=O)O)Oc1c(F)cc(-c2cccc(OC3CCC3)c2)cc1F [Example 116]', 'hGPR120 (Homo sapiens, UniProt Q5NUL3)', '> 6.70'),
  ('COc1ccc(-c2ccc(SCCCC(=O)O)c(F)c2)c(OC2CCCC2)c1 [Example 183]', 'hGPR120 (Homo sapiens, UniProt Q5NUL3)', '5.70 to 6.70'),
  ('O=C(O)CCCOc1c(F)cc(-c2cccc(OC3CCC3)n2)cc1F [Example 25]', 'hGPR120 (Homo sapiens, UniProt Q5NUL3)', '> 6.70');

Hi team, please reply with pEC50 for each item in this list.
1. O=C(O)CCCCCOc1c(F)cc(-c2cccnc2OCC2CCC2)cc1F [Example 272]
2. CCCOc1cccc(-c2cc(F)c(SCCCC(=O)O)c(F)c2)n1 [Example 136]
3. CC(C)Oc1cccc(-c2cc(F)c(OCCCCC(=O)O)c(F)c2)n1 [Example 238]
4. O=C(O)CCCCSc1ccc(-c2cccnc2SC2CCCC2)cc1 [Example 258]
5. O=C(O)CCCOc1ccc(-c2cccnc2SC2CCC2)cc1 [Example 48]
6. Cc1cc(Oc2ncccc2-c2cc(F)c(OCCCC(=O)O)c(F)c2)no1 [Example 217]

Key:
> 6.70
> 6.70
> 6.70
> 6.70
> 6.70
4.70 to 5.70
